Molecular target: human GLP-1 receptor (human, UniProt P43220 24-463)
Test: cell-based or functional assay
Bridges are numbered along the chain shown (N, C = ends). Where no end group is shown, it is not given here. [ ]: non-standard residue; d: D form. The star is where a group is joined. Acetyl(2-(4-imidazolyl)) = O=C(Cc1c[nH]cn1)*; Aib = CC(C)(N)C(=O)O
Label false (0) if in vitro Activity Compared to Native Peptide (%), vs GLP-1 falls below 10%; label true (1) in every other case.

binder	className
H[Aib]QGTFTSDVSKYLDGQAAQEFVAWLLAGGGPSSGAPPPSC-NH2 [triple agonist of SEQ ID NO: 10]	true (1)
H[Aib]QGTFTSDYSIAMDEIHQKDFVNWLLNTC (bridge 16-20; not fully specified (C-terminus)) [triple agonist of SEQ ID NO: 57]	true (1)
[Acetyl(2-(4-imidazolyl))][Aib]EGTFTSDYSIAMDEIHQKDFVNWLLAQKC (bridge 16-20; not fully specified (C-terminus)) [triple agonist of SEQ ID NO: 90]	false (0)

Prompt: Kindly determine if in vitro Activity Compared to Native Peptide (%), vs GLP-1 recorded for [Acetyl(2-(4-imidazolyl))]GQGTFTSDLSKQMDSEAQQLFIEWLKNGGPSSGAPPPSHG-NH2 [triple agonist of SEQ ID NO: 16] is above or exactly 10%.
Response: false (0)

Prompt: Please indicate if the recorded in vitro Activity Compared to Native Peptide (%), vs GLP-1 for [Acetyl(2-(4-imidazolyl))]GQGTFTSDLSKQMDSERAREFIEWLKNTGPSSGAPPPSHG-NH2 [triple agonist of SEQ ID NO: 18] meets or exceeds 10%.
Response: false (0)

Prompt: Confirm if in vitro Activity Compared to Native Peptide (%), vs GLP-1 reported for the binder Y[Aib]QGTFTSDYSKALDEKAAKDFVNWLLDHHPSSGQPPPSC (bridge 16-20; not fully specified (C-terminus)) [triple agonist of SEQ ID NO: 99] is 10% or above.
Response: true (1)

Prompt: Does Y[Aib]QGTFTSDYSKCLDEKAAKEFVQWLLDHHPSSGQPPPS (bridge 16-20; not fully specified (C-terminus)) [triple agonist of SEQ ID NO: 68] have a reported in vitro Activity Compared to Native Peptide (%), vs GLP-1 of at least 10%?
Response: true (1)

Prompt: Check this binder for in vitro Activity Compared to Native Peptide (%), vs GLP-1 at or above 10%: [Acetyl(2-(4-imidazolyl))]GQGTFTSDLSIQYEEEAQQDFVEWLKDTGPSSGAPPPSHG-NH2 [triple agonist of SEQ ID NO: 20]
Response: false (0)
